Tested on: OVCAR-3 ovarian
assayProtocol: NCI-60 one-dose screen, 48 h
measurementContext: 10 µM unless noted
Procedure: Growth inhibition of the OVCAR-3 human tumor cell line is measured as a screen for anti-cancer activity. Cells are grown in 96 well plates and exposed to the test compound for 48 hours. Compounds are tested at a single concentration, which is 10^-5 M for most compounds. The reported endpoint is percent growth (GI% or GIPRCNT), where numbers from 0 - 100% represent growth inhibition, and numbers from -100% - 0 represent cell death. For example, a value of 40 represents 60% growth inhibition. […]
About 83,000 compounds went through this panel and 20% of them were active in at least one assay; those are over-represented in the sample as a whole. The source made the active and inactive calls. The calls were made as follows: active = growth percent below 10; inactive = the rest.
The categories you may choose from are YES (active), NO (inactive)

Request: // return assay outcome for `C=CCN(/C=C/CN(CC=C)CC=C)CC=C`
Response: NO

Request: Repeat with `COC(=O)N/N=C/c1coc2ccc(Cl)cc2c1=O`
Response: NO

Request: Repeat with `Cc1ccc(N/N=C(/C(=O)c2ccc(Cl)cc2)c2nc(C)cc(=O)[nH]2)cc1`
Response: NO

Request: Repeat with `CNNc1ncnc2c1cnn2-c1ccc(S(N)(=O)=O)cc1`
Response: NO

Request: Repeat with CCCCOP(=O)(OCCCC)C(C(=O)OCC)C(CC(=O)OCC)C(=O)OCC (stereo not given)
Response: NO

Request: Repeat with `COP(=O)(OC)C(c1ccccc1)(c1ccccc1)c1ccccc1`
Response: NO

Request: Repeat with NC(=O)NS(=O)(=O)c1ccc(N2N=C(C(F)(F)F)CC2c2cc(C(F)(F)F)cc(C(F)(F)F)c2)cc1 (stereo not given)
Response: NO

Request: Repeat with `O=[N+]([O-])c1ccc2[nH]cc(-c3c4ccccc4cc4[nH]c5ccc([N+](=O)[O-])cc5c34)c2c1`
Response: YES

Request: Repeat with `Cc1ccccc1NC(=O)N/C(N)=N/c1nc2ccccc2s1`
Response: YES

Request: Repeat with `COc1cc(/C=C/C(=O)c2c(C)n([O-])c3ccc(Cl)cc3[n+]2=O)cc(OC)c1OC`
Response: NO

----------
Tested on: MCF7 breast
assayProtocol: NCI-60 one-dose screen, 48 h
measurementContext: 10 µM unless noted
About 83,000 compounds went through this panel and 20% of them were active in at least one assay; those are over-represented in the sample as a whole. Calls of active or inactive are those of the source. Rule for the calls: active = growth percent below 10; inactive = the rest.
The categories you may choose from are active, inactive

Request: // return assay outcome for `c1ccc(-c2nc(Nc3nccnn3)c3ccccc3n2)cc1`
Response: inactive

Request: Repeat with `[N-]=[N+]=NCc1ncc(-c2ccc(C(F)(F)F)cc2)c(NC2CCCCCC2)n1`
Response: inactive

Request: Repeat with `Oc1c(N=Nc2nn[nH]n2)ccc2ccccc12`
Response: inactive

Request: Repeat with CC[C@@H](C)/C=C(C)/C=C/C(=O)c1c(O)c(-c2ccc(O)cc2)cn(OC2CC(=O)CCC(C)OC(=O)CC2O)c1=O (stereo partly specified)
Response: inactive

Request: Repeat with `Oc1ccccc1/C=N/N1CCCCCC1`
Response: inactive

Request: Repeat with C1CCC(C(CC2CCCCN2)C2CCCCC2)CC1 (stereo unspecified)
Response: active

Request: Repeat with `C/C(=C\CCc1ccoc1)CC/C=C(\C)CCCN1CCSCC1`
Response: inactive

Request: Repeat with `O=C1C=CC(=O)N1c1ccccn1`
Response: inactive

Request: Repeat with `O[N+]1=CC=CCC1=S.On1ccccc1=S.[Zn]`
Response: active

Request: Repeat with `O=C1Nc2ccc(Cl)cc2/C1=C/c1cccs1`
Response: inactive

Request: Repeat with `Cc1ccc(-c2c3c(N)nc(-c4ccncc4)nc3nc3c2c(C)nn3-c2ccccc2)cc1`
Response: active
